Experimental Readout: melting point

Some compounds with known melting point results, for comparison:
[
  {
    "Compound": "CCN(c1ccccc1)S(=O)(=O)N=C(SC)N1CC(c2ccccc2)C(c2ccc(Cl)cc2)=N1 (stereo not shown)",
    "melting point": "143 to 146 °C"
  },
  {
    "Compound": "CNC(=NS(=O)(=O)N(C)C)N1CC(c2ccncc2)C(c2ccc(Cl)cc2)=N1 (stereo not shown)",
    "melting point": "178 to 182 °C"
  },
  {
    "Compound": "CCCNC(=NS(=O)(=O)N(C)C)N1CC(c2ccccc2)C(c2ccc(Cl)cc2)=N1 (stereo not shown)",
    "melting point": "127 to 129 °C"
  }
]

For the next question, use this compound.
Look up and report measured melting point for this entry: CCN(C)C(=NS(=O)(=O)N1CCCCC1)N1CC(c2ccccc2)C(c2ccc(Cl)cc2)=N1 (stereo not shown) 178 °C
